Taken from PubChem BioAssay (NCATS).

# procedure.summary: qHTS drug screen for cell cycle checkpoint inhibitors in PARPi-resistant BRCA-mutant ovarian cancer cell lines. (AID 1963452)
# condition.description: PEO1/OlaR viability, CellTiter-Glo luminescence, 96 h; measured here: PEO1 parental Z-AUC; stronger effect = lower value
measure: Z-AUC

{"molecule": "C[C@@H]1N=C(N)NC(N(C)C)=N1", "numeric.result": 1.06}
{"molecule": "COc1cc(F)ccc1-c1ncnc(Nc2cccc(CS(C)(=N)=O)c2)n1 (configuration not stated)", "numeric.result": -1.2}
{"molecule": "O=C(c1ccc(F)c(F)c1Nc1ccc(I)cc1F)N1CC(O)([C@@H]2CCCCN2)C1", "numeric.result": -0.911}
{"molecule": "NC(=O)c1nc(F)c[nH]c1=O", "numeric.result": -0.874}
{"molecule": "CC(=O)C1CCC2C3CCC4=CC(=O)CCC4(C)C3CCC12C (configuration not stated)", "numeric.result": -0.604}
{"molecule": "CC1(C)CC[C@]2(C(=O)O)CC[C@]3(C)C(=CC[C@@H]4[C@@]5(C)C[C@@H](O)[C@H](O)C(C)(C)[C@@H]5CC[C@]43C)[C@@H]2C1", "numeric.result": 0.722}
{"molecule": "COc1cc2ncnc(Oc3cccc(NC(=O)Nc4cc(C(C)(C)C(F)(F)F)on4)c3)c2cc1OC", "numeric.result": 0.387}
{"molecule": "Cc1ccc(NC(=O)Nc2nnc(Sc3ncnc4cc(OCCCN5CCOCC5)ccc34)s2)cc1", "numeric.result": 0.369}
{"molecule": "CN(CCO)C1CCN(c2ccc(Nc3ncc4c5ccnc(F)c5n(C5CCCC5)c4n3)nc2)CC1", "numeric.result": -0.563}
{"molecule": "Cc1ccc2cc(-c3c(C)ccc(C(=O)c4c(-c5ccccc5)n(C)n(-c5ccccc5)c4=O)c3N)ccc2n1", "numeric.result": -0.233}
{"molecule": "Oc1ccc(Nc2nc(-c3ccc(Cl)cc3)cs2)cc1", "numeric.result": 0.0588}
{"molecule": "COC1(c2sc3c(N4CCOCC4)nc(-c4cnc(N)nc4)nc3c2C)COC1", "numeric.result": -1.58}

----------
# test.system: Cytochrome P450 2D6 (Homo sapiens)
# procedure.summary: qHTS Assay for Inhibitors and Substrates of Cytochrome P450 2D6 (AID 891); also: nearly all actives have a fitted effect of over 60% in size
# condition.description: recombinant CYP2D6, luciferin-ME EGE luminescence; series mostly up to 57.1 µM
Results filed as inconclusive are left out. Calls of active or inactive are those of the source. Calls follow the shape of the dose curve; as a rule, active = well fitted inhibition curve with a large enough effect; inconclusive = small, poorly fitted or top-dose-only effect; inactive = no such curve, though single readings can be large or run the other way.
Labels: active, inactive

{"chemical.smiles": "O=C(N/N=C\\c1ccccc1O)c1ccccc1O", "assigned.class": "active"}
{"chemical.smiles": "COc1cc(-c2ccc(N=Nc3ccc4c(S(=O)(=O)O)cc(S(=O)(=O)O)c(N)c4c3O)c(OC)c2)ccc1N=Nc1ccc2c(S(=O)(=O)O)cc(S(=O)(=O)O)c(N)c2c1O", "assigned.class": "inactive"}
{"chemical.smiles": "CCCN(CCC)C[C@@H]1CCCCN1CCNC(=O)N1c2ccccc2C(=O)Nc2cccnc21", "assigned.class": "active"}
{"chemical.smiles": "COc1ccc(/C=C\\C(=O)Nc2ccccc2C(=O)O)cc1OC", "assigned.class": "inactive"}
{"chemical.smiles": "COC(=O)C1=C(C)NC(C)=C([N+](=O)[O-])[C@H]1c1ccccc1C(F)(F)F", "assigned.class": "inactive"}
{"chemical.smiles": "C[C@]12CC3CC(N)(C1)C[C@@](C)(C3)C2", "assigned.class": "active"}

----------
# procedure.summary: MCF7 Cancer Cell Toxicity qHTS against the NCATS CANVASS Library (AID 1347369)
# condition.description: MCF7 viability, ATP luminescence (CellTiter-Glo), 72 h; series mostly up to 46 µM
Records with an inconclusive call do not appear. Active and inactive are the calls of the source. Calls follow the shape of the dose curve; as a rule, active = well fitted cell-killing curve with a large enough effect; inconclusive = small, poorly fitted or top-dose-only effect; inactive = no such curve, though single readings can be large or run the other way.
Labels: 1.0 for active, 0.0 for inactive

{"compound": "O=C(O)CC1OC(=O)c2c(O)cccc21 (centres undefined)", "assigned.class": 0.0}
{"compound": "C[C@]12CC[C@]3(C1)[C@H](CC2=O)CC(OC(=O)c1ccccc1)[C@H]1[C@@](CO)(C(=O)O)CCC[C@@]13C (some centres undefined)", "assigned.class": 0.0}
{"compound": "C=CC(=C)CC[C@]1(C)[C@H]2C[C@H](OC(=O)C(C)CC)C=C3[C@H](OC(C)=O)O[C@H](OC(C)=O)[C@@]32[C@H](OC)C[C@@H]1C (some centres undefined)", "assigned.class": 1.0}
{"compound": "CO[C@@H]1[C@H](O)[C@@H](C)O[C@@H](OC[C@H]2/C=C/C=C/C(=O)C(C)C[C@H](C)C(O[C@@H]3O[C@H](C)CC4(OC(=O)O[C@@H]4C)C3O)[C@@H](C)/C=C/C(=O)OC2C)[C@@H]1OC (some centres undefined)", "assigned.class": 0.0}

----------
# Tested on: CRL-7250
# procedure.summary: Cytotoxic Profiling of Annotated Libraries Using Quantitative High-Throughput Screening (AID 1296008); also: % is scaled to controls: 0 for no effect and ±100 for the full control effect; nearly all actives have a fitted effect of over 60% in size
# condition.description: Five cell lines viability, CellTiter-Glo ATP luminescence, 48-72 h; stronger effect = lower value
Records with an inconclusive call do not appear.
Reported max response values for the following molecules.
measure: max response (%)

{"molecule": "CNc1ccc([N+](=O)[O-])cc1-n1cnc(-c2ccc(C(F)(F)F)cc2)c1", "display.unit": "%", "numeric.result": 1.42}
{"molecule": "O=S(=O)(c1cccc2ccccc12)n1ccc2ccc(N3CCN4CCCC4C3)cc21 (centres undefined)", "display.unit": "%", "numeric.result": -10.4}
{"molecule": "Cc1ccccc1C(=O)Nc1ccc(C(=O)N2CCC[C@@H](O)c3cc(Cl)ccc32)c(C)c1", "display.unit": "%", "numeric.result": -3.25}
{"molecule": "COc1ccc(Cl)cc1[C@@]1(F)C(=O)Nc2cc(C(F)(F)F)ccc21", "display.unit": "%", "numeric.result": -2.43}
{"molecule": "CCCCOc1ccc(-c2cncc(C(=O)NCc3cccnc3N3CCOCC3)c2)cc1Cl", "display.unit": "%", "numeric.result": -9.28}
{"molecule": "CCC[C@@H](NC(=O)N1C(=O)C(CC)(CC)[C@@H]1Oc1ccc(C(=O)N2CCN(C)CC2)cc1)c1ccc2c(c1)OCO2", "display.unit": "%", "numeric.result": -1.89}
{"molecule": "Cn1c(NC[C@@H](N)Cc2ccccc2)nc(-c2ccncc2)c(-c2ccc3ccccc3c2)c1=O", "display.unit": "%", "numeric.result": -1.38}
{"molecule": "N#CCC(C1CCCC1)n1cc(-c2ncnc3[nH]ccc23)cn1 (centres undefined)", "display.unit": "%", "numeric.result": -27.8}
{"molecule": "CC(=O)c1c(OCCN2CCCCC2)c(OCCC(C)c2ccc(F)cc2)c2oc(C)nc2c1C (centres undefined)", "display.unit": "%", "numeric.result": -7.29}

----------
# test.system: Cytochrome P450 2D6 (Homo sapiens) (UniProt P10635)
# Sequence (P10635 whole entry, looked up): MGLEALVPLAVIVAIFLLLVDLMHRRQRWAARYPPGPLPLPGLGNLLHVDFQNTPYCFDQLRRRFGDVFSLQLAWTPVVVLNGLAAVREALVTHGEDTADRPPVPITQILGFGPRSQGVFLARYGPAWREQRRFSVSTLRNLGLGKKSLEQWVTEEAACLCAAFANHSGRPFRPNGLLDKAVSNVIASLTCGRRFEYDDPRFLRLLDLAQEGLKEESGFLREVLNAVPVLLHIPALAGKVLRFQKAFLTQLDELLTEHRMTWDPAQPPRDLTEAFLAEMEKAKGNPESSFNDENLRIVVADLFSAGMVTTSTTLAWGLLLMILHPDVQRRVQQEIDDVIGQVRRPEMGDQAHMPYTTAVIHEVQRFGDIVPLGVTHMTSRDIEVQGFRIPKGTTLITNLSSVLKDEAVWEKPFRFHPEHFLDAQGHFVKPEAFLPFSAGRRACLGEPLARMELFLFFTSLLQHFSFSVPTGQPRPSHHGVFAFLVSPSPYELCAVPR
# procedure.summary: Cytochrome P450 family 2 subfamily D member 6 (CYP2D6) small molecule antagonists: luciferase biochemical (cell-free) qHTS assay (AID 1645840); also: nearly all actives have a fitted effect of over 55% in size
# condition.description: P450-Glo CYP2D6 enzyme, luciferin luminescence, 1 h; series mostly up to 57.4 µM
Records with an inconclusive call do not appear. Activity calls are given as the source filed them. Calls come from the whole dose curve; as a rule, active = well fitted inhibition curve with a large enough effect in the repeat runs; inconclusive = weak or mixed curves; inactive = flat fitted curve, though single readings scatter.
Labels: 1 (active), 0 (inactive)

{"compound": "CC(=O)c1c(OCCN2CCCCC2)c(OCCC(C)c2ccc(F)cc2)c2oc(C)nc2c1C (stereo not drawn)", "assigned.class": 1}
{"compound": "COc1ccc(C2(CNC(=O)[C@](C)(Cc3c[nH]c4ccccc34)NC(=O)Nc3ccc([N+](=O)[O-])cc3)CCCCC2)nc1", "assigned.class": 1}
{"compound": "CCOc1cc(CNC2CCCC2)cc(Cl)c1OCc1ccc(Cl)cc1", "assigned.class": 1}
{"compound": "C=C1C(=O)O[C@@H]2[C@H]3O[C@]3(C)CC/C=C(\\C)CC[C@@H]12", "assigned.class": 0}
{"compound": "CNCc1ccc(C)c(NC(=O)c2ccc(Nc3nc(-c4ccccc4)c4ccccc4n3)cc2)c1", "assigned.class": 1}
{"compound": "Cc1nc(C)c2c(n1)N(Cc1ccc(-c3ccccc3-c3nn[nH]n3)cc1)C(=O)CC2", "assigned.class": 0}
{"compound": "C[C@@H](C(=O)O)c1ccc(-c2ccccc2)c(F)c1", "assigned.class": 0}
{"compound": "CN(CCCNC(=O)c1ccc2nc3c(c(Cl)c2c1)CCCC3)Cc1ccccc1", "assigned.class": 1}
{"compound": "Cn1c(NC[C@@H](N)Cc2ccccc2)nc(-c2ccncc2)c(-c2ccc3ccccc3c2)c1=O", "assigned.class": 1}
{"compound": "CN1CCN(C(=O)c2ccc(Nc3nccc(-c4cccs4)n3)cc2Cl)CC1", "assigned.class": 1}
{"compound": "Fc1ccccc1CNCc1ccc(-c2ccnc3[nH]ccc23)cc1", "assigned.class": 1}
{"compound": "CCCCOc1ccc(-c2cncc(C(=O)NCc3cccnc3N3CCOCC3)c2)cc1Cl", "assigned.class": 1}
{"compound": "CC1CCC(n2c3cnccc3c3cnc(Nc4ccc5c(n4)CCN(C(=O)CO)C5)nc32)CC1 (stereo not drawn)", "assigned.class": 0}
{"compound": "O=C1c2ccc(O)c(O)c2C(=O)c2c(O)ccc(O)c21", "assigned.class": 1}
{"compound": "Cc1ccc(Nc2nnc(-c3ccc(C)c(S(=O)(=O)NCc4nc5ccccc5[nH]4)c3)c3ccccc23)cc1", "assigned.class": 1}
{"compound": "CC1CCN(c2cc(NC(=O)c3ccccc3)ncn2)CC1", "assigned.class": 0}
{"compound": "C[C@H](NC(=O)C(C)(C)Oc1ccc(C(F)(F)F)cn1)[C@@H](Cc1ccc(Cl)cc1)c1cccc(C#N)c1", "assigned.class": 1}
{"compound": "CC(=O)N1c2ccc(-c3ccc(C(=O)O)cc3)cc2C(Nc2ccc(Cl)cc2)CC1C (stereo not drawn)", "assigned.class": 0}
{"compound": "FC(F)(F)c1ccc(CNc2ccc(Cc3c[nH]c4ncccc34)cn2)cc1", "assigned.class": 1}
{"compound": "COc1ccc(NS(=O)(=O)c2sc3ccc(Cl)cc3c2C)cc1N1CCNCC1", "assigned.class": 1}
{"compound": "N#CCC(C1CCCC1)n1cc(-c2ncnc3[nH]ccc23)cn1 (stereo not drawn)", "assigned.class": 0}
{"compound": "NC(=Nc1ccc(CCNCc2cccc(Cl)c2)cc1)c1cccs1", "assigned.class": 1}
{"compound": "CS(=O)(=O)c1ccc(-c2cn3ccccc3n2)cc1", "assigned.class": 1}
{"compound": "CCCCn1c(-c2ccccc2)nc(-c2ccccc2)c1CN(Cc1ccc2c(c1)OCO2)Cc1ccc2c(c1)OCO2", "assigned.class": 1}
{"compound": "CN(CC[C@@H](Oc1ccc(-c2ccccc2)cc1)c1ccc(F)cc1)CC(=O)O", "assigned.class": 0}
{"compound": "O=C(Nc1ccc(F)cc1)N1CCc2ccccc2C1c1ccc(C(F)(F)F)cc1 (stereo not drawn)", "assigned.class": 1}
{"compound": "CCN1CCN(Cc2ccc(-c3cc4c(NC(C)c5ccccc5)ncnc4[nH]3)cc2)CC1 (stereo not drawn)", "assigned.class": 1}
{"compound": "COc1ccc(Nc2nnc(-c3ccc(C)c(S(=O)(=O)NCc4nc5ccccc5[nH]4)c3)c3ccccc23)cc1", "assigned.class": 1}
